system: CAKI-1; test: NCI tumour cell line growth inhibition, 48 h
The source made the active and inactive calls. No stated cut-off is given here; in the data, active = GI50 up to about 1.1 µM and inactive = higher.
attribute measured: GI50

- COc1ccccc1NC(=O)C1=C(C)NC(C)=C(C(=O)Nc2ccccc2OC)C1/C=C/c1ccccc1: > 100 µM (inactive)
- CCOC(=O)/C=C/C(Br)=C(Br)/C=C/C(=O)OCC: 3.84 µM (inactive)
- N#Cc1c(-c2ccccc2)c(C#N)c(=S)n(C2OC(CO)C(O)C(O)C2O)c1N (centres undefined): 92.7 µM (inactive)
- CC(C)Oc1cccc(N2C(CCc3c[nH]c4ccc(Br)cc34)=NS(=O)(=O)c3cnccc32)c1: 22.7 µM (inactive)
- CNC(=O)C(C)C1C(=O)/C(=C(O)/C=C\C(C)=C\C(C)C2OC3(C)OC(C=CC34CO4)C2C)C(=O)N1C1CCC(O)C(C)O1 (centres undefined): > 100 µM (inactive)
- CCOC(=O)c1cc2c(OCc3ccccc3)c(OC)cc3c2c(n1)N(c1ccc(OC)cc1)C(C)C3 (centres undefined): 23.2 µM (inactive)
- Cc1ccc(NC(=O)S(N)(c2ccc(C)cc2)[N+](=O)[O-])cc1 (centres undefined): > 100 µM (inactive)
- Cc1csc(-n2nc(C)cc2C)n1: > 100 µM (inactive)
- CC(=O)O[C@H]1CC[C@@]2(C)C(=CC[C@@H]3[C@@H]2CC[C@]2(C)C(=O)/C(=C\c4ccccc4)C[C@@H]32)C1: > 100 µM (inactive)
- CCC[C@@H]1C(=O)N=C(N)N1C(=O)OCc1ccccc1: > 100 µM (inactive)
- C=CC(=O)N1C/C(=C\c2ccc(N(C)C)cc2)C(=O)/C(=C/c2ccc(N(C)C)cc2)C1: > 100 µM (inactive)
- Cn1c2ccccc2n2c3ncccc3c(=O)cc12: 36.2 µM (inactive)
- COC1(c2ccc(Cl)cc2)SC=C(C)n2c1noc2=O (centres undefined): > 100 µM (inactive)
- CNC/C(Cl)=N/S(=O)(=O)c1ccc(C)cc1: 13.2 µM (inactive)

* * *

# Lookup of reported GI50 keyed by entry
test system: NCI-H460; assay: NCI tumour cell line growth inhibition, 48 h
Activity calls are given as the source filed them. Cut-off read from the data, not from the text of the source: active = GI50 up to about 1.1 µM and inactive = higher.
attribute measured: GI50

* COc1cc(C2c3cc4c(cc3[C@@H](N(C)C)[C@H]3COC(=O)C23)OCO4)cc(OC)c1O (stereo partly specified) | 31.2 µM (inactive)
* C/C(=N\NC(=N)N)C(CN(CC(C)C)CC(C)C)C(=O)Nc1ccc(C)cc1C (stereo unspecified) | > 100 µM (inactive)
* O=C(CC(=O)Nc1ccccc1)NNC(Sc1ccccc1)c1cc(/N=N/c2ccc(Br)cc2)ccc1O (stereo unspecified) | 0.773 µM (active)
* CCCCCCCCCc1cc(=O)c2ccc(OCc3ccccc3)cc2o1 | 64.4 µM (inactive)
* c1ccc(/C(=N/Nc2ccncn2)c2ccccn2)cc1 | 30.1 µM (inactive)
* O=C(O)C(=Cc1ccc(-c2ccccc2)cc1)C(=O)O | 14.9 µM (inactive)
* COc1cc(CNc2ccc(C)cc2)cc(OC)c1OC | 0.252 µM (active)
* COC(=O)c1c(O)ccc2c1c1c(n2CCc2ccccc2)C(=O)c2ccccc2C1=O | 4.11 µM (inactive)
* CC(NC1=NCCO1)c1ccsc1 (stereo unspecified) | 10.9 µM (inactive)
* CC#CC(O)(C(=O)OC1CCCN(C)C1)C1=CC=CCC1 (stereo unspecified) | > 100 µM (inactive)
* OC1(c2ccccc2)OC(C#Cc2ccccc2)(c2ccccc2)c2ccccc21 (stereo unspecified) | 4.47 µM (inactive)
* N#Cc1ccccc1NC(=O)C(=O)C(C(=O)c1ccccc1F)C1OC(=O)c2ccccc21 (stereo unspecified) | 41.1 µM (inactive)
* CC1(C)CC(=O)c2c(nc(SSc3nc4c(c(-c5ccccc5)c3C#N)C(=O)CC(C)(C)C4)c(C#N)c2-c2ccccc2)C1 | > 10 µM (inactive)
* O=C(NC(Cc1ccc(I)cc1)C(=O)O)c1ccc(Br)cc1 (stereo unspecified) | 98.6 µM (inactive)
* O=C(Cc1ccccc1)NN1C(=O)/C(=C\c2ccc([N+](=O)[O-])cc2)S/C1=N\c1ccccc1 | > 100 µM (inactive)
* COc1ccc(COCC(Cn2ccnc2)OCc2ccc(C(=O)O)cc2)cc1 (stereo unspecified) | > 100 µM (inactive)

* * *

test system: M14; experiment: NCI tumour cell line growth inhibition, 48 h
Calls of active or inactive are those of the source. No stated cut-off is given here; in the data, active = GI50 up to about 1.1 µM and inactive = higher.
Outcome codes: t = active, f = inactive

- COc1ccc(C[n+]2cccc(O)c2)cc1: f
- CNC/C(Cl)=N/S(=O)(=O)c1ccc(C)cc1: f
- O=C(CC1(O)CCCCC1)OC1CCCC1: f
- CCOC(=O)Cc1ccc(Nc2nc3cc(F)c(F)cc3nc2C(=O)OCC)cc1: f
- CC(C)(C)c1cc(CCC(=O)Nc2ccc(Cl)cc2Cl)nc(N)n1: f
- CC(O)(c1ccc(OCCC[N+](C)(C)C)cc1)C(C)(O)c1ccc(OCCC[N+](C)(C)C)cc1 (stereo not given): f
- O=C1C2=Cc3ccccc3CCN2c2ccccc21: f
- CC1C2CC(CC23OCC(CCl)O3)C1(C)C (stereo not given): f
- OCCN(CCO)c1cccc(N(CCO)CCO)c1: f
- CC(=O)C1Cn2c(nc3ccccc32)C[Se]1 (stereo not given): f
- CCN(CC)CCn1c2cc3c(cc2c(=O)c2cccnc21)OCCO3: f
- O=C1Nc2ccccc2/C1=N/Nc1ccc([N+](=O)[O-])cc1[N+](=O)[O-]: f
- CCc1nc(N)nc(N)c1-c1ccc(N2CCOCC2)c(N=[N+]=[N-])c1: f
- C=CC(=O)N1C/C(=C\c2ccc(N(C)C)cc2)C(=O)/C(=C/c2ccc(N(C)C)cc2)C1: f
- COC(=O)[C@H]1C=C[C@H](OC2OC(COC(C)=O)C(OC(C)=O)C(OC(C)=O)C2OC(C)=O)n2c(=O)n(-c3ccccc3)c(=O)n21 (stereo not given in full): f
- COc1ccc(CCc2cc(OC)c(O)c(OC)c2)cc1: f
- C/C=C(/CBr)CCC(Br)C(C)(C)Cl.C/C=C(\CBr)CCC(Br)C(C)(C)Cl (stereo not given): f
- Cc1ncc([N+](=O)[O-])n1CCNC(=O)CCC(=O)NCCCn1ccnc1[N+](=O)[O-]: f
- COC(=O)/C(=N\N)C(C(=O)C(=O)Nc1cccc([N+](=O)[O-])c1)c1nc2ccc(C(=O)c3ccccc3)cc2nc1O (stereo not given): f
- COc1ccc(OC)c2c1C(=O)C1CC1(Br)C2=O (stereo not given): f
- CC1CCCC(C(=O)/C(=C/c2cccc(Cl)c2)C(=O)C(=O)O)C1 (stereo not given): f
- Cc1cnc2c(c1C)C(=O)c1ccccc1C2=O: f
- Cc1nc2c(o1)C(=O)c1ccccc1/C2=N/c1ccccn1: f
- FC(F)(F)c1cccnc1Sc1nc2ccccc2s1: f
- O=C(O)[C@H]1NC[C@@H]2ON=C(Br)[C@@H]21: f
- Cc1cc2nc(-c3cc(C(C)(C)C)c(O)c(C(C)(C)C)c3)[nH]c2cc1C: f
- CSc1ccc(C(=O)C(=O)c2ccc(SC)s2)s1: f
- CC1CCC23COC(=O)C2C(O)CCC3C1(C)CC(O)c1ccoc1 (stereo not given): f
- COC(=O)C1=C(CO)C2C=CC1C2 (stereo not given): f
- C=C(C)[C@H]1CC[C@@]23O[C@@H]2[C@@H](C[C@@]2(C)CC(=O)[C@H](CC(=O)C1)O2)OC(=O)[C@@]12CC[C@H](C(=C)C)CC(=O)C[C@H]4O[C@](C)(CC4=O)C[C@@H](OC3=O)[C@@H]1O2: f
- CN(C)CCNC(=O)c1c2ccccc2cc2ccccc12: f
- NC(=O)c1nnsc1NN=O: f
- CC#CC1C2CCCC1(CSc1ccccc1)NC(=O)O2 (stereo not given): f
- Cc1ccc(S(=O)(=O)NC(=O)NC(CO)C(=O)O)cc1 (stereo not given): f
- Nc1ccc2c(c1)N(C(=O)CCCC(=O)N1CC(CCl)c3ccc(N)cc31)CC2CCl (stereo not given): t

* * *

tested on: MOLT-4; experiment: NCI tumour cell line growth inhibition, 48 h
Activity calls are given as the source filed them. Cut-off read from the data, not from the text of the source: active = GI50 up to about 1.1 µM and inactive = higher.
attribute measured: GI50

• COc1cc(C2Oc3cc(-c4oc5cc(O)cc(O)c5c(=O)c4O)ccc3OC2CO)ccc1O (stereo not drawn) [DEHYDROSILYLBIN] = 3.9 µM (inactive)
• CCOC(=O)C(OP(=O)(OCC)OCC)C(F)(F)F (stereo not drawn) = > 100 µM (inactive)
• CC1(C)CC(=O)c2c(nc(SSc3nc4c(c(-c5ccccc5)c3C#N)C(=O)CC(C)(C)C4)c(C#N)c2-c2ccccc2)C1 = > 10 µM (inactive)
• Cc1ccc2c(c1)NC(=O)CCSSCCC(=O)N2 = > 100 µM (inactive)
• Cc1oc2c(c1C)S(=O)(=O)C(C#N)=CN2 = > 100 µM (inactive)
• N#Cc1c(-c2ccccc2)c(C#N)c(=O)n(NS(=O)(=O)c2ccccc2)c1O = > 100 µM (inactive)
• CC(=O)C1Cn2c(nc3ccccc32)C[Se]1 (stereo not drawn) = 2.29 µM (inactive)
• COc1ccc(S(=O)(=O)Nc2ccc(-c3csc(N4C(=O)/C(=C/c5ccccc5)N=C4c4ccccc4)n3)cc2)cc1Cl = 25.1 µM (inactive)
